Here the recorded pKi is given for each entry.
system-tested: hCA XII (Homo sapiens)
Construct: made in house
protocol: CA-catalysed CO2 hydration stopped-flow inhibition assay, hCA XII
Type: biochemical
settings: Table 2, sulfamides 7 and 8
By convention, pKi is the negative base-10 log of a molar concentration.

Could you share which pKi value was measured for COc1ccc(NC(=O)Nc2ccc(NS(N)(=O)=O)cc2)c(C)c1 ?
7.44

Returns the measured pKi for the input compound. Input: Cc1ccccc1NC(=O)NCc1ccc(NS(N)(=O)=O)cc1
7.52

Further cases:
Would you mind telling me what pKi value was observed for NS(=O)(=O)Nc1ccc(NC(=O)Nc2cccc([N+](=O)[O-])c2)cc1 ?
8.10

Reported pKi for NS(=O)(=O)Nc1ccc(NC(=O)Nc2ccc(Cl)cc2)cc1 : what is it?
7.60

Value lookup for pKi; key = NS(=O)(=O)Nc1ccc(NC(=O)Nc2ccc(CCc3ccccc3)cc2)cc1
8.10

* * *

system-tested: hCA XII (Homo sapiens, UniProt O43570)
Construct: made in house
Sequence (O43570 25-354): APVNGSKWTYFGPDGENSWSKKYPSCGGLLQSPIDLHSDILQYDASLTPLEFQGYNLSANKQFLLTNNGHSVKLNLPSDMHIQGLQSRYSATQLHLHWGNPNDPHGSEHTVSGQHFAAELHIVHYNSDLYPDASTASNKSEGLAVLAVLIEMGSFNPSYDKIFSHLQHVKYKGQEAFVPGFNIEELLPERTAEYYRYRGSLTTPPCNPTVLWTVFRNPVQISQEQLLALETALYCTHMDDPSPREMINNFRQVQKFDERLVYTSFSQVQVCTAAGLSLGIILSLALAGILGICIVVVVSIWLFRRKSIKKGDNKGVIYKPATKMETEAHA
protocol: CA-catalysed CO2 hydration stopped-flow inhibition assay, hCA XII
Assay type: biochemical
settings: Table 2, sulfamides 7 and 8
metric: pKi
Reminder that pKi means the negative base-10 logarithm of the concentration expressed in mol/L.

See these solved cases before continuing.
Which pKi value is on record for Cc1cc(C)cc(NC(=O)Nc2ccc(NS(N)(=O)=O)cc2)c1 [Compound 7b] ?
8.30

Field request: pKi | item: CN(C)c1ccc(NC(=O)NCc2ccc(NS(N)(=O)=O)cc2)cc1 [Compound 8f]
7.66

Consider the molecule shown here: CCCCOc1ccc(NC(=O)Nc2ccc(NS(N)(=O)=O)cc2)cc1 [Compound 7n] What is its recorded pKi?
8.05

Reported pKi for CC(NC(=O)Nc1ccc(NS(N)(=O)=O)cc1)c1cccc2ccccc12 (centres unmarked) [Compound 7c] : what is it?
7.55

Continue with the molecule presented below.
What pKi value was documented for this molecule, CC(C)c1ccccc1NC(=O)Nc1ccc(NS(N)(=O)=O)cc1 [Compound 7g] ?
7.27

* * *

system-tested: hCA I (Homo sapiens, UniProt P00915)
Construct: made in house
Sequence (P00915 whole entry): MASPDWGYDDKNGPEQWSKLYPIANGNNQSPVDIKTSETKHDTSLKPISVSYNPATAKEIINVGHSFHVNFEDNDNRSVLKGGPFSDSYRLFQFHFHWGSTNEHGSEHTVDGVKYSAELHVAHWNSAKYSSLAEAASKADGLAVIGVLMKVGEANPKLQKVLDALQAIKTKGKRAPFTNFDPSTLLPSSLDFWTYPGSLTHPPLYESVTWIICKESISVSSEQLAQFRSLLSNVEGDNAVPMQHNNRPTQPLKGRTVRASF
protocol: CA-catalysed CO2 hydration stopped-flow inhibition assay, hCA I
Type: biochemical
settings: Table 2, sulfamides 7 and 8
Measured Ki by item
Write the number in nM without appending the unit.

GET /values?readout=Ki&item= NS(=O)(=O)Nc1ccc(NC(=O)NCc2ccco2)cc1
6800

Query (compound): NS(=O)(=O)Nc1ccc(NC(=O)Nc2cccc([N+](=O)[O-])c2)cc1 ; field requested: Ki
1980

Returns the measured Ki for the input compound. Input: NS(=O)(=O)Nc1ccc(NC(=O)Nc2ccc(CCc3ccccc3)cc2)cc1
2560

Recorded Ki of COc1ccc(NC(=O)NCc2ccc(NS(N)(=O)=O)cc2)cc1 , please.
2310

Next:
May I ask what Ki has been recorded for NS(=O)(=O)Nc1ccc(CNC(=O)Nc2ccccc2Cl)cc1 ?
1650

* * *

system-tested: hCA IX (Homo sapiens)
Construct: made in house
protocol: CA-catalysed CO2 hydration stopped-flow inhibition assay, hCA IX
Format: biochemical
settings: Table 1, sulfamates 3; read-out: Ki hCAIX
Description: Typically, CA inhibition is measured by assaying for CA-catalysed CO2 hydration activity using an appropriate indicator dye. […] Stopped flow spectrophotometry may used to measure the rate of hydration activity. The uncatalyzed rates were determined in the same manner and subtracted from the total observed rates. […]
Known pKi of a selection of molecules
Recall that pKi is obtained by taking minus log10 of the concentration measured in molar.

# count of solved cases: 4
Give pKi (hCA IX (Homo sapiens)) of the following molecule: CCOC(=O)c1ccccc1NC(=O)Nc1ccc(OS(N)(=O)=O)cc1
8.10

Query for hCA IX (Homo sapiens): what pKi does the record show for CN(C)c1ccc(NC(=O)Nc2ccc(OS(N)(=O)=O)cc2)cc1 ?
8.05

Given the entry NS(=O)(=O)Oc1ccc(NC(=O)NC23CC4CC(CC(C4)C2)C3)cc1 [Compound 3u, 4-[(1-adamantyl)ureido]phenyl sulfamate] , what pKi was observed with hCA IX (Homo sapiens)?
7.68

Requested read-out pKi, target or system hCA IX (Homo sapiens), entry NS(=O)(=O)Oc1ccc(NC(=O)Nc2ccc3ccccc3c2)cc1 [Compound 3aq, 4-[(2-naphtyl)ureido]phenyl sulfamate]
7.80

Proceed to the following item.
Query the reported pKi for hCA IX (Homo sapiens); item: CN1CCN(CCNC(=O)Nc2ccc(OS(N)(=O)=O)cc2)CC1
7.80
